Each record here notes measured pSyk EC50, differentiated THP-1 cells.
# target.or.system: T1, human TREM2 on cells (human, UniProt Q9NZC2 19-230)
# T1 sequence: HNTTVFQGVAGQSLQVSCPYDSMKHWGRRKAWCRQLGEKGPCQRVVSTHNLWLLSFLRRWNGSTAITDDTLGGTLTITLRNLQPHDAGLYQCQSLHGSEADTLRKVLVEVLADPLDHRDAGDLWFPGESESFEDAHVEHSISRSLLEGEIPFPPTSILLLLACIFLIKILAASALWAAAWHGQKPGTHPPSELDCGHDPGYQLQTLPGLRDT
# measurement.notes: cell-based or functional assay
# output: bare number, implied unit nM

Quick check: pSyk EC50, differentiated THP-1 cells of 32E3 (antibody, human IgG2, V domains shown, human IgG2 from hybridoma) VH: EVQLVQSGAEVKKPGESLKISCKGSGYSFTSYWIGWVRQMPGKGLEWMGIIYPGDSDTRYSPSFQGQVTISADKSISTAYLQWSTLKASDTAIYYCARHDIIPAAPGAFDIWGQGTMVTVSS VL: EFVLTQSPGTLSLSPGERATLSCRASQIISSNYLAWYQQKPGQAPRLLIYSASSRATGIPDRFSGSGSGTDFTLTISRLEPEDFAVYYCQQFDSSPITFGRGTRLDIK ?
1.25

Same lookup for 16B8 (antibody, human IgG4, V domains shown, human IgG4 (G4) from hybridoma) VH: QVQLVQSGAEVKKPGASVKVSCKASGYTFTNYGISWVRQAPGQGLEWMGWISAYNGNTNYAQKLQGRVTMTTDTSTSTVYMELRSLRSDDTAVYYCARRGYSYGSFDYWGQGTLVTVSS VL: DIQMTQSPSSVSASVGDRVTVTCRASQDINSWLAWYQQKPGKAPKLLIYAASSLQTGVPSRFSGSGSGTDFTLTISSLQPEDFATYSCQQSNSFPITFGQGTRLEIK , please.
0.418

Next binder up: 10E3 (antibody, human IgG2, V domains shown, human IgG2 from hybridoma) VH: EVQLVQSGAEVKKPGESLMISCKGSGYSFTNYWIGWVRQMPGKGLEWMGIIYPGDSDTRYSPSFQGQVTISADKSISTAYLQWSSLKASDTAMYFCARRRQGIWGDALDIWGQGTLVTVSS VL: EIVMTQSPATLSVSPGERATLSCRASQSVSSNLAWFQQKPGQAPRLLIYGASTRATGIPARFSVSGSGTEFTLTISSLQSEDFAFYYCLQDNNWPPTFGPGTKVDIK
1

// data source = patent US20220204611A1
